target: 11β-HSD1 Dehydrogenase (Rattus norvegicus, UniProt P16232); construct: an enzyme present in testicular Leydig cells; endogenous in cells; host or cells: freshly prepared rat Leydig cells; assay: Inhibition of 11β-HSD1 dehydrogenase (Table 1); type: cell-based
Sequence (P16232 whole entry): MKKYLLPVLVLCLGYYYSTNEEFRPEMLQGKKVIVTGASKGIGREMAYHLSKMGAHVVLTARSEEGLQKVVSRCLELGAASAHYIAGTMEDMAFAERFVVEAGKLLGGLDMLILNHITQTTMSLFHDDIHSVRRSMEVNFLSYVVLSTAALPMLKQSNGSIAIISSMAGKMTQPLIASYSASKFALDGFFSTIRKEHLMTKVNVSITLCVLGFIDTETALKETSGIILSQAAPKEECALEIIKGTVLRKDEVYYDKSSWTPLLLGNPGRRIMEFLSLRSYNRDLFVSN
assay-readout: 11β-HSD1 Dehydrogenase (inhibition)

Before answering, review these 5 worked examples.
molecule	tgt	11β-HSD1 Dehydrogenase (inhibition)
C[C@]12CC[C@@H]3[C@@H]([C@@H](O)C[C@]4(C=O)[C@@H](C(=O)CO)CC[C@H]34)[C@@]1(C)CC[C@H](O)C2	11β-HSD1 Dehydrogenase (Rattus norvegicus, UniProt P16232)	Moderate Inhibitor
C[C@]12CC(=O)[C@@H]3[C@@H](CCC4=CC(=O)CC[C@@]43C)[C@H]1CC[C@@H]2O	11β-HSD1 Dehydrogenase (Rattus norvegicus, UniProt P16232)	No Inhibition
CC(=O)[C@H]1CC[C@@H]2[C@@H]3CCC4=CC(=O)CC[C@]4(C)[C@@H]3C(=O)C[C@]12C	11β-HSD1 Dehydrogenase (Rattus norvegicus, UniProt P16232)	No Inhibition
CC(=O)[C@H]1CC[C@@H]2[C@@H]3CC[C@@H]4C[C@@H](O)CC[C@]4(C)[C@@H]3[C@@H](O)C[C@]12C [3α,5β-reduced- 11β-OH—progesterone]	11β-HSD1 Dehydrogenase (Rattus norvegicus, UniProt P16232)	Moderate Inhibitor
C[C@]12CC[C@H](O)C[C@@H]1CC[C@@H]1[C@@H]2C(=O)C[C@]2(C)C(=O)CC[C@@H]12	11β-HSD1 Dehydrogenase (Rattus norvegicus, UniProt P16232)	No Inhibition

Record `C[C@]12CC[C@H](O)C[C@@H]1CC[C@H]1[C@@H]3CC[C@H](C(=O)CO)[C@@]3(C)CC(=O)[C@@H]12` , field 11β-HSD1 Dehydrogenase (inhibition): No Inhibition

Record `CC(=O)[C@H]1CC[C@@H]2[C@@H]3CC[C@@H]4C[C@@H](O)CC[C@]4(C)[C@@H]3C(=O)C[C@]12C` , field 11β-HSD1 Dehydrogenase (inhibition): No Inhibition

Record `C[C@]12CC[C@H](O)C[C@@H]1CC[C@H]1[C@@H]3CC[C@H](O)[C@@]3(C)CC(=O)[C@@H]12` , field 11β-HSD1 Dehydrogenase (inhibition): No Inhibition

Record `C[C@]12CC[C@H](O)C[C@H]1CC[C@@H]1[C@H]2[C@@H](O)C[C@]2(C)C(=O)CC[C@H]12` , field 11β-HSD1 Dehydrogenase (inhibition): Moderate Inhibitor

Record C[C@]12CCC(=O)C=C1CC[C@@H]1[C@H]2C(=O)C[C@]2(C)C(=O)CC[C@H]12 (stereo in doubt) , field 11β-HSD1 Dehydrogenase (inhibition): No Inhibition

* * *

target: 11β-HSD1 Reductase (Rattus norvegicus, UniProt P16232); construct: an enzyme present in testicular Leydig cells; endogenous in cells; host or cells: freshly prepared rat Leydig cells; experiment: Inhibition of 11β-HSD1 reductase (Table 1); type: cell-based
Sequence (P16232 whole entry): as above
assay-readout: 11β-HSD1 Reductase (inhibition)

molecule	tgt	11β-HSD1 Reductase (inhibition)
C[C@]12CC[C@H](O)C[C@H]1CC[C@@H]1[C@H]2[C@@H](O)C[C@@]2(C)[C@@H]1CC[C@@H]2O [3α,5β-reduced- 11β-OH—testosterone]	11β-HSD1 Reductase (Rattus norvegicus, UniProt P16232)	No Inhibition
C[C@]12C[C@H](O)[C@@H]3[C@@H](CCC4=CC(=O)CC[C@@]43C)[C@H]1CC[C@@H]2O	11β-HSD1 Reductase (Rattus norvegicus, UniProt P16232)	No Inhibition
C[C@]12CCC(=O)C=C1CC[C@@H]1[C@H]2C(=O)C[C@]2(C)C(=O)CC[C@H]12 (stereo in doubt)	11β-HSD1 Reductase (Rattus norvegicus, UniProt P16232)	Selective Inhibitor
C[C@]12CC[C@@H]3[C@@H]([C@@H](O)C[C@]4(C=O)[C@@H](C(=O)CO)CC[C@H]34)[C@@]1(C)CC[C@H](O)C2	11β-HSD1 Reductase (Rattus norvegicus, UniProt P16232)	No Inhibition
C[C@]12CC[C@H](O)C[C@@H]1CC[C@H]1[C@@H]3CC[C@H](O)[C@@]3(C)CC(=O)[C@@H]12	11β-HSD1 Reductase (Rattus norvegicus, UniProt P16232)	Selective Inhibitor

Record `CC(=O)[C@H]1CC[C@@H]2[C@@H]3CCC4=CC(=O)CC[C@]4(C)[C@@H]3C(=O)C[C@]12C` , field 11β-HSD1 Reductase (inhibition): Selective Inhibitor

Record CC(=O)[C@H]1CC[C@@H]2[C@@H]3CC[C@@H]4C[C@@H](O)CC[C@]4(C)[C@@H]3[C@@H](O)C[C@]12C [3α,5α-reduced- 11β-OH—progesterone] , field 11β-HSD1 Reductase (inhibition): No Inhibition
